Each entry below carries its recorded pEC50.
- subject.of.test: IDO1 (Homo sapiens)
- Construct: HeLa cells were treated with a test compound in the presence of IFNγ, which induces IDO1 expression; host or cells: H1-HeLa cells, IDO1 induced with IFNγ
- measurement.description: Cell-based (HeLa) assay for measurement of IDO1 inhibition (kynurenine levels in supernatant after IFNγ induction)
- experimental.setup: HeLa cells, IFNγ-induced IDO1, kynurenine in supernatant after 48 hour incubation; geometric mean of a minimum of four determinations
Note on pEC50: it is the negative log10 of concentration, concentration in mol/L.

> print(dat)
                                   compound  metric.name  endpoint.result
1  Nc1nc2c(F)ccc(/C(=N/O)Nc3ccc(F)c(Cl)c3)c2[nH]1 [Example 22]        pEC50             6.42
2  CN1CCCCC1CNc1nc2nccc(/C(=N/O)Nc3ccc(F)c(Cl)c3)c2[nH]1 (centres unmarked) [Example 202]        pEC50             5.68

Q: Could you share which pEC50 value was measured for CN1CCCC(c2nc3c(F)c(F)cc(/C(=N/O)Nc4cccc(Cl)c4)c3[nH]2)C1 (centres unmarked) [Example 44] ?
A: 5.78

Q: Which pEC50 value is on record for COCCN(C)CCNc1nc2nccc(/C(=N/O)Nc3ccc(F)c(Cl)c3)c2[nH]1 [Example 219] ?
A: 5.42

Q: Please look up its pEC50: O/N=C(\Nc1ccc(F)c(Cl)c1)c1cc(F)c(F)c2nc(N3CCOCC3)[nH]c12 [Example 32]
A: 5.03

Q: Returns the measured pEC50 for the input compound. Input: O/N=C(\Nc1ccc(F)c(Cl)c1)c1ccnc2nc(CNc3ccccc3)[nH]c12 [Example 128]
A: 5.62

Q: Query: pEC50; subject: COCCN(C)CCc1nc2nccc(/C(=N/O)Nc3ccc(F)c(Cl)c3)c2[nH]1 [Example 194]
A: 6.30

Q: Could you tell me which pEC50 is on file for CN(C)CCc1nc2c(/C(=N/O)Nc3cccc(Cl)c3)cc(F)c(F)c2[nH]1 [Example 56] ?
A: 6.25

Q: Endpoint output: pEC50 of CN(C)c1nc2nccc(/C(=N/O)Nc3ccc(F)c(Cl)c3)c2[nH]1 [Example 169] . Value?
A: 5.20

Q: What measured pEC50 goes with O/N=C(\Nc1cc2ccccc2cc1Cl)c1ccnc2nc[nH]c12 [Example 103] ?
A: 5.09

Q: Request the reported pEC50 associated with CC(C)NCCc1nc2nccc(/C(=N/O)Nc3ccc(F)c(Cl)c3)c2[nH]1 [Example 205]
A: 5.55

Q: What does the data say about its pEC50? Entry: O/N=C(\Nc1ccc(Cl)c(Cl)c1)c1ccnc2nc[nH]c12 [Example 86]
A: 6.19

Q: Looking for the measured pEC50 of O/N=C(\Nc1ccc(F)c(C(F)(F)F)c1)c1ccnc2nc[nH]c12 [Example 83] , can you help?
A: 6.50

Q: pEC50 lookup needed for COCCCNCc1nc2c(F)c(F)cc(/C(=N/O)Nc3cccc(Cl)c3)c2[nH]1 [Example 24] , thanks.
A: 5.72

Q: May I ask what pEC50 has been recorded for O/N=C(\Nc1ccc(F)c(Cl)c1)c1cccc2nc[nH]c12 [Example 8] ?
A: 5.75

Q: Quick check: pEC50 of CN(C)CCc1nc2nccc(/C(=N/O)Nc3cccc(Cl)c3)c2[nH]1 [Example 264] ?
A: 6.14

Q: Fill in the blank: the reported pEC50 of O/N=C(\Nc1ccc(C(F)(F)F)cc1)c1ccnc2nc[nH]c12 [Example 91] is ____.
A: 5.65

Q: Would you kindly share the measured pEC50 for O/N=C(\Nc1cccc2ccccc12)c1ccnc2nc[nH]c12 [Example 104] ?
A: 5.71

Q: // returns reported pEC50 for input O/N=C(\Nc1ccc(F)c(Br)c1)c1ccnc2nc(NCCN3CCOCC3)[nH]c12 [Example 238]
A: 6.07

Q: Can you look up the measured pEC50 of CC(=O)NCc1nc2nccc(/C(=N/O)Nc3ccc(F)c(Cl)c3)c2[nH]1 [Example 145] for me?
A: 5.01

Q: Name the recorded pEC50 for CNc1nc2c(F)c(F)cc(/C(=N/O)Nc3ccc(F)c(Cl)c3)c2[nH]1 [Example 38] .
A: 6.22

Q: If you can, please state the reported pEC50 value of O/N=C(\Nc1ccc(F)c(Cl)c1F)c1ccnc2nc[nH]c12 [Example 64] .
A: 6.09

Q: Item under review: CC(C)(O)CNc1nc2c(F)c(F)cc(/C(=N/O)Nc3ccc(F)c(Cl)c3)c2[nH]1 [Example 292] . Reported pEC50?
A: 5.48

* * *

Measured pEC50 values are reported for all entries that follow.
- subject.of.test: IDO1 (Homo sapiens, UniProt P14902)
- Construct: HeLa cells were treated with a test compound in the presence of IFNγ, which induces IDO1 expression; host or cells: H1-HeLa cells, IDO1 induced with IFNγ
- Sequence (P14902 whole entry): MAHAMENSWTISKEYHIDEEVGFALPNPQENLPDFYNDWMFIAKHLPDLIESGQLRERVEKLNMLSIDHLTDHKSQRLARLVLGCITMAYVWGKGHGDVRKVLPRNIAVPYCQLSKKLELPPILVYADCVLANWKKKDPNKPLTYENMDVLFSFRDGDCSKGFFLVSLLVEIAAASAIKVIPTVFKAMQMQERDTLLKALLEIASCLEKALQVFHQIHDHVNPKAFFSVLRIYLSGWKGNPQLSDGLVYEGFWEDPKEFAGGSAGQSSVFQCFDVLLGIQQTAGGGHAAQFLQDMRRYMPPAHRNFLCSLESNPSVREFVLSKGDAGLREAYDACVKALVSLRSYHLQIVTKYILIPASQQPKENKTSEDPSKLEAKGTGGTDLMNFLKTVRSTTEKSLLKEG
- measurement.description: Cell-based (HeLa) assay for measurement of IDO1 inhibition (kynurenine levels in supernatant after IFNγ induction)
- experimental.setup: HeLa cells, IFNγ-induced IDO1, kynurenine in supernatant, 48 hour incubation; geometric mean of a minimum of four determinations
Value format note: pEC50 is -log10 of concentration (mol/L); just state the number.

Example results:
> print(dat)
                                   compound  endpoint.result
1  NS(=O)(=O)CCNc1nc2nccc(/C(=N/O)Nc3ccc(F)c(Cl)c3)c2[nH]1 [Example 492]             5.25
2  CC1CN(C(C)CNc2nc3nccc(/C(=N/O)Nc4ccc(F)c(Cl)c4)c3[nH]2)CC(C)O1 (stereo not drawn) [Example 483]             6.18

Q: Given CN(CCc1nc2nccc(/C(=N/O)Nc3ccc(F)c(Cl)c3)c2[nH]1)CC1COCCO1 (stereo not drawn) [Example 400] , state its recorded pEC50.
A: 5.55

* * *

Parameter EC50: see the listing below.
- subject.of.test: IDO1 (Homo sapiens, UniProt P14902)
- Construct: HeLa cells were treated with a test compound in the presence of IFNγ, which induces IDO1 expression; host or cells: H1-HeLa cells, IDO1 induced with IFNγ
- measurement.description: Cell-based (HeLa) assay for measurement of IDO1 inhibition (kynurenine levels in supernatant after IFNγ induction)
- experimental.setup: HeLa cells, IFNγ-induced IDO1, kynurenine in supernatant after 48 hour incubation; geometric mean of a minimum of four determinations
Please give a number only; it is taken to be in µM.

Known EC50 results, listed for orientation:
> print(dat)
                                   compound  endpoint.result
1  CN(C)CCc1nc2c(/C(=N/O)Nc3cccc(Br)c3)cc(F)c(F)c2[nH]1 [Example 55]            0.379
2  CC(C)OC(=O)Nc1nc2nccc(/C(=N/O)Nc3ccc(F)c(Cl)c3)c2[nH]1 [Example 159]            0.453

Q: Recorded EC50 for Nc1nc2c(F)ccc(/C(=N/O)Nc3ccc(F)c(C(F)(F)F)c3)c2[nH]1 [Example 21] , please?
A: 0.725

* * *

Measured EC50 accompanies every entry in the list below.
- subject.of.test: IDO1 (Homo sapiens)
- Construct: HeLa cells were treated with a test compound in the presence of IFNγ, which induces IDO1 expression; host or cells: H1-HeLa cells, IDO1 induced with IFNγ
- measurement.description: Cell-based (HeLa) assay for measurement of IDO1 inhibition (kynurenine levels in supernatant after IFNγ induction)
- experimental.setup: HeLa cells, IFNγ-induced IDO1, kynurenine in supernatant, 48 hour incubation; geometric mean of a minimum of four determinations

> print(dat)
                                   molecule      subject.of.test  endpoint.result
1  O=S(=O)(NCCNc1nc2c(F)c(F)cc(/C(=N/O)Nc3ccc(F)c(Cl)c3)c2[nH]1)C1CC1 [Example 336]  IDO1 (Homo sapiens)          > 10 µM

Q: Can you share its EC50? I mean this molecule: CO[C@@H]1CN(C)C[C@H]1Nc1nc2c(F)c(F)cc(/C(=N/O)Nc3ccc(F)c(Cl)c3)c2[nH]1 [Example 458]
A: 0.261 µM

Q: I am curious: what EC50 value has been reported for O/N=C(\Nc1ccc(F)c(Cl)c1)c1ccnc2nc(CC3CCCCN3)[nH]c12 (stereo not drawn) [Example 325] ?
A: > 10 µM

* * *

EC50 listing for selected compounds.
- subject.of.test: IDO1 (Homo sapiens, UniProt P14902)
- Construct: HeLa cells were treated with a test compound in the presence of IFNγ, which induces IDO1 expression; host or cells: H1-HeLa cells, IDO1 induced with IFNγ
- measurement.description: Cell-based (HeLa) assay for measurement of IDO1 inhibition (kynurenine levels in supernatant after IFNγ induction)
- experimental.setup: HeLa cells, IFNγ-induced IDO1, kynurenine in supernatant after 48 hour incubation; geometric mean of a minimum of four determinations
// units = nM; emit number, no label

Here's what some known entries look like.
> print(dat)
                                 smiles.code                      subject.of.test  endpoint.result
 1  CC(C)NCc1nc2c(F)ccc(/C(=N/O)Nc3ccc(F)c(Cl)c3)c2[nH]1  IDO1 (Homo sapiens, UniProt P14902)             2230
 2  O/N=C(\Nc1ccc(F)c(Cl)c1)c1ccnc2nc(NCC(F)(F)F)[nH]c12  IDO1 (Homo sapiens, UniProt P14902)             1090
 3  Nc1nc2nccc(/C(=N/O)Nc3ccc(F)c(Cl)c3)c2[nH]1  IDO1 (Homo sapiens, UniProt P14902)              897
 4  O/N=C(\Nc1cccc(C(F)F)c1)c1ccnc2nc[nH]c12  IDO1 (Homo sapiens, UniProt P14902)              550
 5  COCCCNCc1nc2c(/C(=N/O)Nc3ccc(F)c(Cl)c3)cc(F)c(F)c2[nH]1  IDO1 (Homo sapiens, UniProt P14902)             1320
 6  CN(C)CCCNc1nc2c(F)c(F)cc(/C(=N/O)Nc3ccc(F)c(Cl)c3)c2[nH]1  IDO1 (Homo sapiens, UniProt P14902)              473
 7  CC(C)Nc1nc2nccc(/C(=N/O)Nc3ccc(F)c(Cl)c3)c2[nH]1  IDO1 (Homo sapiens, UniProt P14902)              705
 8  CNc1nc2nccc(/C(=N/O)Nc3ccc(F)c(Br)c3)c2[nH]1  IDO1 (Homo sapiens, UniProt P14902)              241
 9  CN(C)CCc1nc2nccc(/C(=N/O)Nc3ccc(F)c(Br)c3)c2[nH]1  IDO1 (Homo sapiens, UniProt P14902)              559
10  O/N=C(\Nc1ccc(F)c(Cl)c1)c1cc(F)c(F)c2[nH]c(CNCC3CC3)nc12  IDO1 (Homo sapiens, UniProt P14902)             1060

Q: Given the compound O/N=C(\Nc1ccc(F)c(Cl)c1)c1ccnc2nc(CNCc3cccnc3)[nH]c12 , what is its reported EC50?
A: 2280

Q: Could you share which EC50 value was measured for O/N=C(\Nc1ccc(F)c(Cl)c1)c1ccnc2nc(CNCC(F)F)[nH]c12 ?
A: 5160

Q: Need EC50 of COCCNCCc1nc2nccc(/C(=N/O)Nc3ccc(F)c(Cl)c3)c2[nH]1 , thanks.
A: 1510
